target: DNA-dependent protein kinase catalytic subunit (Homo sapiens, UniProt P78527); assay: Inhibition of human DNA-PK using (poly [Glu, Tyr] 4:1) as substrate assessed as incorporation of 33P in substrate by [gamma33P] ATP-based kinase assay
Sequence (P78527 whole entry): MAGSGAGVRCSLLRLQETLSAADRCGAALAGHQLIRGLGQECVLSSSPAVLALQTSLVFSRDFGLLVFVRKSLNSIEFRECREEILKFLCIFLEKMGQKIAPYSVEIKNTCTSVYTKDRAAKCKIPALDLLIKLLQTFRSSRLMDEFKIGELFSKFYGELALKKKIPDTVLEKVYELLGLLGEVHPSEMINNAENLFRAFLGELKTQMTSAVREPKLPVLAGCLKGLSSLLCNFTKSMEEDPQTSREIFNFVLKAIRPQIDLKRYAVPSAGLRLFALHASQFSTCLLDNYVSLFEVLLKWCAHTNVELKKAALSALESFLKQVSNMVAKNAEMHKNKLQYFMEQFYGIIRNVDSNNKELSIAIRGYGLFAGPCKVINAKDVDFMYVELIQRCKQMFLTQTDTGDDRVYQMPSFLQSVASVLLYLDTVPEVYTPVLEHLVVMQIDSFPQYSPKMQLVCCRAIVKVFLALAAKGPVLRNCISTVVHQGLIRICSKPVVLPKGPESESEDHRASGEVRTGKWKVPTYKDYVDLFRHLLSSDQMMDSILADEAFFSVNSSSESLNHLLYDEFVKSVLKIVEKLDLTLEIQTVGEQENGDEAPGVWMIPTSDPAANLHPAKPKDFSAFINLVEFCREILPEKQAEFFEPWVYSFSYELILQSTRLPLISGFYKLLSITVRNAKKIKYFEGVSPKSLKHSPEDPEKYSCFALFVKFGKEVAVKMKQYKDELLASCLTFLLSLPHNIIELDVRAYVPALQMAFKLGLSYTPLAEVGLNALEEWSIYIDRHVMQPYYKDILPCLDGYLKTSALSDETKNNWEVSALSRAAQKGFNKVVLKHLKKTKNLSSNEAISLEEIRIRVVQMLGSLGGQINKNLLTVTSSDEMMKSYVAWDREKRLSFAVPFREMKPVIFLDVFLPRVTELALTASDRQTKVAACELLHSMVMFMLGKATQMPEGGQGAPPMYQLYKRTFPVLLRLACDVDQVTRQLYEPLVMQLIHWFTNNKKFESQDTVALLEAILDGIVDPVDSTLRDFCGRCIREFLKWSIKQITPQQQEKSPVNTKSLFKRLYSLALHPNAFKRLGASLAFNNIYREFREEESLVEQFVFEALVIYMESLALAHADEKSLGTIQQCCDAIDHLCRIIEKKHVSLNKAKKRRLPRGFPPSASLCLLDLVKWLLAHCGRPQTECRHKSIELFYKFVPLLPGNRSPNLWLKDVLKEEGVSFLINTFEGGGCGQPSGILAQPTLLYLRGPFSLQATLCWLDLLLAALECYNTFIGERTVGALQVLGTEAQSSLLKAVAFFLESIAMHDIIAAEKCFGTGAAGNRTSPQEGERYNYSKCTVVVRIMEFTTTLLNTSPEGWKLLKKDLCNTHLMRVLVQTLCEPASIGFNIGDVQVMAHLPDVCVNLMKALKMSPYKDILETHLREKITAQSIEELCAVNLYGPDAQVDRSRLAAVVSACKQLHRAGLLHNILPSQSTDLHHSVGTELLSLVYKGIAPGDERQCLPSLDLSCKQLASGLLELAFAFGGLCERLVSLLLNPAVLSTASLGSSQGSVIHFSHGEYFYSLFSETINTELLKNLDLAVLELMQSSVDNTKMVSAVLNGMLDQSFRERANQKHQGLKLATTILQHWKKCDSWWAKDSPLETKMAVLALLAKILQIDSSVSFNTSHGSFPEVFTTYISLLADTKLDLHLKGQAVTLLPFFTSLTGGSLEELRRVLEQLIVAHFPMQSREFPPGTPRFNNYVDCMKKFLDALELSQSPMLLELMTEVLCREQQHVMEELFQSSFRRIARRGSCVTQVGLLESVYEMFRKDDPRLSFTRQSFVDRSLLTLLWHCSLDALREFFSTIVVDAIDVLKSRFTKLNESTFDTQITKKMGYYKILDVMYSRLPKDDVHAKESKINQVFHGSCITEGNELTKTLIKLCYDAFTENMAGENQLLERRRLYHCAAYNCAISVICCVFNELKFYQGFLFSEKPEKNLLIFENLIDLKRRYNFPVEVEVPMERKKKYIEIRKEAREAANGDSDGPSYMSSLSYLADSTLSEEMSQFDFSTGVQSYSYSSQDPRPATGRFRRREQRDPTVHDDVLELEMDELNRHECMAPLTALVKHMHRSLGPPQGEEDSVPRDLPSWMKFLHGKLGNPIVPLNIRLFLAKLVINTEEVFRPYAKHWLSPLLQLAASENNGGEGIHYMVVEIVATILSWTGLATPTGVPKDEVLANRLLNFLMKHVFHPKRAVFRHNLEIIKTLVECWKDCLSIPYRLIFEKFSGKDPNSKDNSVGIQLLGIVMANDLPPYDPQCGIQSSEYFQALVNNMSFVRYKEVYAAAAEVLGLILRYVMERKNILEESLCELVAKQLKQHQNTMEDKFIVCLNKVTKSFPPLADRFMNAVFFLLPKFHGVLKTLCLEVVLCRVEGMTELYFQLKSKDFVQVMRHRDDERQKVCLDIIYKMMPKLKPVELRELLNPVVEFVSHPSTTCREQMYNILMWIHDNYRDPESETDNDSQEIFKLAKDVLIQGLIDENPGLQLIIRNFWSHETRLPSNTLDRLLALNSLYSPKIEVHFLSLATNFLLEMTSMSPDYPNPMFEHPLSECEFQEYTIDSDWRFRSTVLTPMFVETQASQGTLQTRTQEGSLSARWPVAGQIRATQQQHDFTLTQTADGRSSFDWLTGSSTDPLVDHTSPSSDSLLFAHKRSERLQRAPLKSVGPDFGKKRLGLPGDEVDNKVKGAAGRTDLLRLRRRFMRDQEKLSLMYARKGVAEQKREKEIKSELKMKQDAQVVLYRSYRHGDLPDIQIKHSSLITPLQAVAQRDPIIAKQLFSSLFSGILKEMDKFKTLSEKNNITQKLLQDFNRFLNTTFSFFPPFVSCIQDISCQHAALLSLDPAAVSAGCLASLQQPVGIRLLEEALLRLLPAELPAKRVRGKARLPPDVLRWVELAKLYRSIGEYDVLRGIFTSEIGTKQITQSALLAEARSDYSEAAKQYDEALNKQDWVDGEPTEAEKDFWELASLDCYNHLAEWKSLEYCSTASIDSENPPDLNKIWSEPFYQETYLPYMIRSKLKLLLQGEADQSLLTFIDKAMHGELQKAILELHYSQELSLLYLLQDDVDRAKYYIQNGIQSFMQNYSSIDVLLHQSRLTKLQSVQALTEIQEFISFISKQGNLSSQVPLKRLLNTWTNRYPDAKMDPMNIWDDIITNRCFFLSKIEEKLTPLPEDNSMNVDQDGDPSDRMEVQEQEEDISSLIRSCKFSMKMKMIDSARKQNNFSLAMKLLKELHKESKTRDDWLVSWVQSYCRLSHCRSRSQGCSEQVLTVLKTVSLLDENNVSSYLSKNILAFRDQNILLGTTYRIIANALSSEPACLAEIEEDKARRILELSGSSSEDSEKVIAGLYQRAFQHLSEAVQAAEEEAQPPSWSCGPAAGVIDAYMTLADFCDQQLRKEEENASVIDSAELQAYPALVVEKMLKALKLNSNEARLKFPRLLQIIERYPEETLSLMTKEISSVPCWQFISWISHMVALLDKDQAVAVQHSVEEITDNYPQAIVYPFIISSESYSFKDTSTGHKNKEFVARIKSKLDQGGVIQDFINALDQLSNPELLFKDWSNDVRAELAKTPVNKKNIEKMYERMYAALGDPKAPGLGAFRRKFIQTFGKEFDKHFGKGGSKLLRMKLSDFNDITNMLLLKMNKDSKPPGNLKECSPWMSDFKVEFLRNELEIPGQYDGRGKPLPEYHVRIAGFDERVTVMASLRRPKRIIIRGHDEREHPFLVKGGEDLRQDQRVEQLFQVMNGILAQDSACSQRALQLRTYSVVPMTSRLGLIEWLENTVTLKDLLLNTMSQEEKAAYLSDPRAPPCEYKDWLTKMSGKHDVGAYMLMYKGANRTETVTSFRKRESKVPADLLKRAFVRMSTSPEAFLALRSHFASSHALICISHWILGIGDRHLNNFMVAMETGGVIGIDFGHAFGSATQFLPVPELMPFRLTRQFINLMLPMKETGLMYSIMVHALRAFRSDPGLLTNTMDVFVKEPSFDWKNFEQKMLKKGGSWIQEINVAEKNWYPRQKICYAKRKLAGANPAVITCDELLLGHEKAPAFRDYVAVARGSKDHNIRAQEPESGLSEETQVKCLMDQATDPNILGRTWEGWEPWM
Property Measured: IC50 (nM)

1 = Nc1nc2cc(-c3nn(CC4CCCO4)c4ncnc(N)c34)ccc2o1 (stereo not drawn)
2 = Nc1nc2cc(-c3nn(CC4CCCC4)c4ncnc(N)c34)ccc2o1
3 = CCOC(Cn1nc(-c2ccc3oc(N)nc3c2)c2c(N)ncnc21)OCC
Descending sort on IC50 required. Reply format: the labels, ordered as requested.
3, 1, 2
(3: 320 nM, 1: 48 nM, 2: 3 nM)

* * *

molecular target: Phosphatidylinositol 4,5-bisphosphate 3-kinase catalytic subunit beta isoform (Homo sapiens, UniProt P42338); experiment: Inhibition of PI3Kbeta (unknown origin) using PIP2 as substrate by HTRF assay
Property Measured: IC50 (nM)

P = Nc1nc2cc(-c3nn(CC4CCCC4)c4ncnc(N)c34)ccc2o1
Q = Nc1nc2cc(-c3nn(CC4CCCO4)c4ncnc(N)c34)ccc2o1 (stereo not drawn)
Return label of the item with the larger IC50. Candidates: P , Q . Provide the label of your selected option as the answer.
Q

* * *

target: Platelet-derived growth factor receptor alpha (Homo sapiens)
pIC50: −log10 of the molar value.
Listed molecules paired with reported pIC50

[[record]]
cpd_smiles = "CCOC(Cn1nc(-c2cnc3[nH]ccc3c2)c2c(N)ncnc21)OCC"
system_name = "Platelet-derived growth factor receptor alpha (Homo sapiens)"
property_measured = "pIC50"
reported = "< 4.00"


Could you now look at the following molecule, please?
Give pIC50 (Platelet-derived growth factor receptor alpha (Homo sapiens)) of the following molecule: COC(Cn1nc(-c2ccc3oc(N)nc3c2)c2c(N)ncnc21)OC
< 4.00

* * *

Listed molecules paired with reported IC50
molecular target: Proto-oncogene tyrosine-protein kinase Src (Homo sapiens); experiment: Inhibition of human SRC using (poly [Glu, Tyr] 4:1) as substrate assessed as incorporation of 33P in substrate by [gamma33P] ATP-based kinase assay
Sequence (P12931 2-536 limits assumed): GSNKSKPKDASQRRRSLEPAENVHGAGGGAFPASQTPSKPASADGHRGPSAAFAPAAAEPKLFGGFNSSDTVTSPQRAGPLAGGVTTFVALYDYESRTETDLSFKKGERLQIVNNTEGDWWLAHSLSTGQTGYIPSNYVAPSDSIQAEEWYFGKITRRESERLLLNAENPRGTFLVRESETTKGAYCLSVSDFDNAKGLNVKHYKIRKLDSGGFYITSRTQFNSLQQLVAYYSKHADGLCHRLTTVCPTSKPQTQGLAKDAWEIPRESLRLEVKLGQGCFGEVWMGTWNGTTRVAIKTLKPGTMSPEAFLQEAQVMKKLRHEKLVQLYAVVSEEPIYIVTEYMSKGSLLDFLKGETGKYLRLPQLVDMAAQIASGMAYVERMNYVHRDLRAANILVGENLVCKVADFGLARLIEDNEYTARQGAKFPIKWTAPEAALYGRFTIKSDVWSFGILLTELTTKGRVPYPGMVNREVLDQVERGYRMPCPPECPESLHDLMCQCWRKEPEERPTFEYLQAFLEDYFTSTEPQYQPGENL

[[record]]
cpd_smiles = "CCOC(Cn1nc(-c2ccc3oc(N)nc3c2)c2c(N)ncnc21)OCC"
system_name = "Proto-oncogene tyrosine-protein kinase Src (Homo sapiens)"
reported = "> 100 µM"


Could you now look at the following molecule, please?
# query: IC50 of entry Nc1nc2cc(-c3nn(CC4OCCO4)c4ncnc(N)c34)ccc2o1
> 100 µM

* * *

molecular target: Phosphatidylinositol 4,5-bisphosphate 3-kinase catalytic subunit beta isoform (Homo sapiens, UniProt P42338); test: Inhibition of PI3Kbeta (unknown origin) using (poly [Glu, Tyr] 4:1) as substrate assessed as incorporation of 33P in substrate by [gamma33P] ATP-based kinase assay
Property Measured: IC50 (µM)

I = COC(Cn1nc(-c2ccc3oc(N)nc3c2)c2c(N)ncnc21)OC
II = Nc1nc2cc(-c3nn(CC4OCCO4)c4ncnc(N)c34)ccc2o1
Return label of the item with the larger IC50. Candidates: I , II . Provide the label of your selected option as the answer.
I
(I: 5.6 µM, II: 3.85 µM)

* * *

target: Phosphatidylinositol 4,5-bisphosphate 3-kinase catalytic subunit gamma isoform (Homo sapiens); experiment: Inhibition of PI3Kgamma (unknown origin) using (poly [Glu, Tyr] 4:1) as substrate assessed as incorporation of 33P in substrate by [gamma33P] ATP-based kinase assay
Property Measured: IC50 (nM)

I = CCOC(Cn1nc(-c2ccc3oc(N)nc3c2)c2c(N)ncnc21)OCC
II = Nc1nc2cc(-c3nn(CC4OCCO4)c4ncnc(N)c34)ccc2o1
III = COC(Cn1nc(-c2ccc3oc(N)nc3c2)c2c(N)ncnc21)OC
Descending sort on IC50 required. Reply format: the labels, ordered as requested.
I, II, III
